# subject_of_test: recombinant human EYA3 (Homo sapiens, UniProt Q99504)
# Construct: a splice variant of Q99504 corresponding to isoform 2 and missing residues 1 - 126; made in house
# Sequence (Q99504 1-447 isoform Q99504-2): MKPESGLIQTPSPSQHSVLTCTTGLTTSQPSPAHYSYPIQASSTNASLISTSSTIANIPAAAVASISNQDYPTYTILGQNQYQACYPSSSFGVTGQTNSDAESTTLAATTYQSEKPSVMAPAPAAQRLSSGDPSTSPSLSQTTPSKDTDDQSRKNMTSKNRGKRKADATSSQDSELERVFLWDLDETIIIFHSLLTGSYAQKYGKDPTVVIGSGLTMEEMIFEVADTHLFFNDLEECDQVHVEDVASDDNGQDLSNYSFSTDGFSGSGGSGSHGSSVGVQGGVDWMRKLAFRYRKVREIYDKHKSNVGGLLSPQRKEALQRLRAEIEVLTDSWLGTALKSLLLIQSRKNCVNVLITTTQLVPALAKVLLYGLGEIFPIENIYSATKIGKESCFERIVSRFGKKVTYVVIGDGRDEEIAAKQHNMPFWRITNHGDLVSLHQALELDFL
# assay_remarks: pNPP hydrolysis by EYA3 (tyrosine phosphatase enzyme assay)
# Type: biochemical
# experimental_parameters: recombinant human EYA3, substrate pNPP; read-out: IC50 (95% confidence intervals), pNPP hydrolysis by EYA3
pIC50: −log10 of the molar value.
readout_name: pIC50

{"compound": "CC(O)CCc1oc2ccccc2c1C(=O)c1cc(I)c(O)c(I)c1 (stereo not drawn)", "readout_name": "pIC50", "result": 4.79}
{"compound": "CCc1oc2cc(O)ccc2c1C(=O)c1cc(Br)c(O)c(Br)c1 [Compound 6OH-BBR, 6-hydroxybenzbromarone]", "readout_name": "pIC50", "result": 4.67}
{"compound": "Cc1oc2ccccc2c1C(=O)c1cc(I)c(O)c(I)c1", "readout_name": "pIC50", "result": 5.05}
{"compound": "CCCCc1oc2ccccc2c1C(=O)c1cc(I)c(O)c(I)c1", "readout_name": "pIC50", "result": 5.51}
{"compound": "CCc1oc2ccc(O)cc2c1C(=O)c1cc(Br)c(O)c(Br)c1 [Compound 5OH-BBR, 5-hydroxy benzbromaorne]", "readout_name": "pIC50", "result": 4.31}
{"compound": "CC(O)c1oc2ccccc2c1C(=O)c1cc(Br)c(O)c(Br)c1 (stereo not drawn) [1’OH-BBR, 1’-hydroxybenzbromarone]", "readout_name": "pIC50", "result": 4.28}

I: Cc1oc2ccccc2c1C(=O)c1ccc(O)c(I)c1
II: Cc1oc2ccccc2c1C(=O)c1ccc(O)cc1
Prompt: API: POST /compare with I and II ; response names the item with higher pIC50. Pick one; state its label.
Completion: I
